condition label: bacteroides fragilis, 12 h, 2 µM
Description: The drug is tested on Bacteroides fragilis strain: DS-208 for biotransformation. The drug concentrations were measured before and after a 12-h incubation by liquid-chromatography-coupled mass spectrometry (LC–MS)

# compound, Bacterial Biotransformation
records = [
    ("c1ccc2[nH]c(-c3cscn3)nc2c1 [THIABENDAZOLE]", "Compound NOT metabolized"),
    ("CC(CCc1ccccc1)NCC(O)c1ccc(O)c(C(N)=O)c1 (stereo not given) [LABETALOL]", "Compound NOT metabolized"),
    ("COc1ccccc1OCC(O)COC(N)=O (stereo not given) [METHOCARBAMOL]", "Compound NOT metabolized"),
    ("C#C[C@]1(OC(C)=O)CC[C@H]2[C@@H]3CCC4=C/C(=N/O)CC[C@@H]4[C@H]3CC[C@@]21CC [NORGESTIMATE]", "Compound NOT metabolized"),
]

* * *

condition label: bacteroides fragilis, 12 h, 2 µM
Description: The drug is tested on Bacteroides fragilis strain: 3397 (T10) for biotransformation. The drug concentrations were measured before and after a 12-h incubation by liquid-chromatography-coupled mass spectrometry (LC–MS)
reported metric: Bacterial Biotransformation

# compound, reported metric, result
rows = [
    ("CN(C)C(=O)C(CCN1CCC(O)(c2ccc(Cl)cc2)CC1)(c1ccccc1)c1ccccc1 [LOPERAMIDE]", "Bacterial Biotransformation", "Compound metabolized"),
    ("Cc1ccc(/C(=C\\CN2CCCC2)c2ccccn2)cc1", "Bacterial Biotransformation", "Compound NOT metabolized"),
    ("CCCC(C)(COC(N)=O)COC(=O)NC(C)C (stereo unspecified)", "Bacterial Biotransformation", "Compound metabolized"),
    ("CN1CCC[C@@H]1CCO[C@](C)(c1ccccc1)c1ccc(Cl)cc1.O=C(O)/C=C/C(=O)O [CLEMASTINE FUMARATE]", "Bacterial Biotransformation", "Compound metabolized"),
    ("N[C@@H](Cc1ccc(N(CCCl)CCCl)cc1)C(=O)O", "Bacterial Biotransformation", "Compound metabolized"),
]

Turning now to a further record.
For the compound shown here, Nc1nc(N)nc(-c2cc(Cl)ccc2Cl)n1.O=C(O)/C=C\C(=O)O [IRSOGLADINE MALEATE] , give the reported Bacterial Biotransformation.
Compound NOT metabolized

* * *

experimental details: The drug is tested on Bacteroides ovatus strain: ATCC8483 for biotransformation. The drug concentrations were measured before and after a 12-h incubation by liquid-chromatography-coupled mass spectrometry (LC–MS)
condition label: 2 µM
reported metric: Bacterial Biotransformation

In the examples that follow, each entry is paired with its recorded Bacterial Biotransformation.
# compound, Bacterial Biotransformation
measured = [
    ("Cc1ccc(S(=O)(=O)NC(=O)NN2CCCCCC2)cc1 [TOLAZAMIDE]", "Compound metabolized"),
    ("C#C[C@]1(O)CC[C@H]2[C@@H]3CCC4=CC(=O)CC[C@@H]4[C@H]3CC[C@@]21CC", "Compound NOT metabolized"),
    ("CCN1CCCC1CNC(=O)c1cc(S(=O)(=O)CC)c(N)cc1OC (centres undefined) [AMISULPRIDE]", "Compound NOT metabolized"),
    ("CN1CCC[C@@H]1CCO[C@](C)(c1ccccc1)c1ccc(Cl)cc1.O=C(O)/C=C/C(=O)O [CLEMASTINE FUMARATE]", "Compound NOT metabolized"),
    ("CC(C)(C)NCC(O)c1cc(Cl)c(N)c(Cl)c1 (centres undefined)", "Compound NOT metabolized"),
]

For the compound shown here, CCCN(CCC)CCc1cccc2c1CC(=O)N2 , give the reported Bacterial Biotransformation.
Compound NOT metabolized

Also, CN(C)CC(c1ccc(O)cc1)C1(O)CCCCC1.O=C(O)CCC(=O)O (centres undefined) [DESVENLAFAXINE SUCCINATE] please.
Compound NOT metabolized

Also, O=C1NCC2(CCN(CCc3ccccc3)CC2)O1 [FENSPIRIDE] please.
Compound metabolized

Also, COc1cc(C(=O)NCc2ccc(OCCN(C)C)cc2)cc(OC)c1OC [TRIMETHOBENZAMIDE] please.
Compound NOT metabolized

* * *

experimental details: The drug is tested on Bacteroides cellulosilyticus strain: DSM14838 for biotransformation. The drug concentrations were measured before and after a 12-h incubation by liquid-chromatography-coupled mass spectrometry (LC–MS)
condition label: 2 µM
reported metric: Bacterial Biotransformation

# molecule, Bacterial Biotransformation
records = [
    ("O=C(O[C@H]1C[C@H]2CC[C@@H](C1)[N+]21CCCC1)C(O)(c1ccccc1)c1ccccc1.[Cl-] [TROSPIUM CHLORIDE]", "Compound NOT metabolized"),
    ("CN(CCOc1ccc(CC2SC(=O)NC2=O)cc1)c1ccccn1.O=C(O)/C=C\\C(=O)O (stereo not given) [ROSIGLITAZONE MALEATE]", "Compound NOT metabolized"),
    ("CC(C)C[C@H]1C(=O)N2CCC[C@H]2[C@]2(O)O[C@](NC(=O)[C@@H]3C=C4c5cccc6[nH]c(Br)c(c56)C[C@H]4N(C)C3)(C(C)C)C(=O)N12.CS(=O)(=O)O [BROMOCRIPTINE MESYLATE]", "Compound metabolized"),
    ("CCOc1ccccc1OCCN[C@H](C)Cc1ccc(OC)c(S(N)(=O)=O)c1.Cl [TAMSULOSIN HYDROCHLORIDE]", "Compound NOT metabolized"),
    ("O=C(O)CCc1nc(-c2ccccc2)c(-c2ccccc2)o1 [OXAPROZIN]", "Compound NOT metabolized"),
    ("CC(=O)OCC(CCn1cnc2cnc(N)nc21)COC(C)=O [FAMCICLOVIR]", "Compound metabolized"),
]

For the molecule shown here, CCOC(=O)[C@H](CCc1ccccc1)N[C@@H](C)C(=O)N1[C@H](C(=O)O)C[C@@H]2CCC[C@@H]21 , give the reported Bacterial Biotransformation.
Compound metabolized

Also, CN(C)CCOC(c1ccc(Cl)cc1)c1ccccn1.O=C(O)/C=C\C(=O)O (stereo not given) [CARBINOXAMINE MALEATE] please.
Compound NOT metabolized

Also, O=c1[nH]c2ccccc2n1C1CCN(CCCC(c2ccc(F)cc2)c2ccc(F)cc2)CC1 [PIMOZIDE] please.
Compound NOT metabolized

Also, CC(=O)OCC(=O)[C@@]1(OC(C)=O)[C@@H](C)C[C@H]2[C@@H]3C[C@H](F)C4=CC(=O)C=C[C@]4(C)[C@@]3(F)[C@@H](O)C[C@@]21C [DIFLORASONE DIACETATE] please.
Compound metabolized

Also, CCOc1cc(CC(=O)N[C@@H](CC(C)C)c2ccccc2N2CCCCC2)ccc1C(=O)O [REPAGLINIDE] please.
Compound metabolized

Also, O=C1C(CC[S+]([O-])c2ccccc2)C(=O)N(c2ccccc2)N1c1ccccc1 (stereo not given) [SULFINPYRAZONE] please.
Compound NOT metabolized

Also, C=CCN1CC[C@]23c4c5ccc(O)c4O[C@H]2C(=O)CC[C@@]3(O)[C@H]1C5 [NALOXONE] please.
Compound NOT metabolized

Also, OCCOCCN1CCN(C2=Nc3ccccc3Sc3ccccc32)CC1 [QUETIAPINE] please.
Compound NOT metabolized

Also, CC[C@H](C)C(=O)O[C@H]1CCC=C2C=C[C@H](C)[C@H](CC[C@@H]3C[C@@H](O)CC(=O)O3)[C@H]21 [MEVASTATIN] please.
Compound metabolized

Also, CC(=O)OCC(=O)[C@@]12N=C(C)O[C@@H]1C[C@H]1[C@@H]3CCC4=CC(=O)C=C[C@]4(C)[C@H]3[C@@H](O)C[C@@]12C [DEFLAZACORT] please.
Compound metabolized

Also, CCc1nc(N)nc(N)c1-c1ccc(Cl)cc1 [PYRIMETHAMINE] please.
Compound NOT metabolized

* * *

condition label: anaerostipes sp., 12 h, 2 µM
Description: The drug is tested on Anaerostipes sp. strain: fecal isolate for biotransformation. The drug concentrations were measured before and after a 12-h incubation by liquid-chromatography-coupled mass spectrometry (LC–MS)
reported metric: Bacterial Biotransformation

# compound, Bacterial Biotransformation
measured = [
    ("CCOC(=O)[C@H](CCc1ccccc1)N[C@H]1CCc2ccccc2N(CC(=O)O)C1=O", "Compound NOT metabolized"),
    ("O=c1n(CCCN2CCN(c3cccc(Cl)c3)CC2)nc2ccccn12", "Compound NOT metabolized"),
    ("CC(=O)OCC(=O)[C@@]1(O)[C@@H](C)C[C@H]2[C@@H]3CCC4=CC(=O)C=C[C@]4(C)[C@@]3(F)[C@@H](O)C[C@@]21C [BETAMETHASONE ACETATE]", "Compound NOT metabolized"),
    ("COc1ccc2c3c1O[C@H]1C[C@@H](O)C=C[C@@]31CCN(C)C2", "Compound metabolized"),
]

Turning now to a further record.
For the compound shown here, NC(=O)N1c2ccccc2CC(=O)c2ccccc21 [OXCARBAZEPINE] , give the reported Bacterial Biotransformation.
Compound NOT metabolized

* * *

experimental details: The drug is tested on Bacteroides vulgatus strain: ATCC8482 for biotransformation. The drug concentrations were measured before and after a 12-h incubation by liquid-chromatography-coupled mass spectrometry (LC–MS)
condition label: phocaeicola vulgatus, 2 µM
reported metric: Bacterial Biotransformation

# molecule, Bacterial Biotransformation
measured = [
    ("COc1ccc2c(c1)c(CC(=O)O)c(C)n2C(=O)c1ccc(Cl)cc1", "Compound metabolized"),
    ("CCOC(=O)[C@H](CCc1ccccc1)N[C@H]1CCc2ccccc2N(CC(=O)O)C1=O", "Compound metabolized"),
    ("CCOC(=O)[C@H](CCc1ccccc1)N[C@@H](C)C(=O)N1[C@H](C(=O)O)C[C@H]2CCCC[C@@H]21", "Compound metabolized"),
    ("COc1cc(NC(C)CCCN)c2ncccc2c1.O=P(O)(O)O.O=P(O)(O)O (stereo unspecified) [PRIMAQUINE PHOSPHATE]", "Compound NOT metabolized"),
]

For the molecule shown here, C#C[C@]1(OC(C)=O)CC[C@H]2[C@@H]3CCC4=CC(=O)CC[C@@H]4[C@H]3CC[C@@]21C [NORETHINDRONE ACETATE] , give the reported Bacterial Biotransformation.
Compound metabolized

Also, CCCC1O[C@@H]2C[C@H]3[C@@H]4CCC5=CC(=O)C=C[C@]5(C)[C@H]4[C@@H](O)C[C@]3(C)[C@]2(C(=O)CO)O1 (stereo partly specified) [BUDESONIDE] please.
Compound metabolized

Also, COC(=O)C1=C(C)NC(C)=C(C(=O)OC(C)C)C1c1cccc2nonc12 (stereo unspecified) please.
Compound NOT metabolized

Also, CC(C)(Oc1ccc(CCNC(=O)c2ccc(Cl)cc2)cc1)C(=O)O [BEZAFIBRATE] please.
Compound metabolized

Also, CCCCc1nc(Cl)c(CO)n1Cc1ccc(-c2ccccc2-c2nn[nH]n2)cc1 please.
Compound metabolized

Also, Cc1nc(-c2ccc(OCC(C)C)c(C#N)c2)sc1C(=O)O please.
Compound metabolized

Also, CS(=O)(=O)O.OC(CCN1CCCCC1)(c1ccccc1)c1ccccc1 [PRIDINOL METHANESULFONATE] please.
Compound NOT metabolized

Also, C[C@@H](c1ncncc1F)[C@](O)(Cn1cncn1)c1ccc(F)cc1F please.
Compound metabolized

Also, C[C@]12C=CC(=O)C=C1CC[C@@H]1[C@@H]2C(=O)C[C@@]2(C)[C@H]1CC[C@]2(O)C(=O)CO please.
Compound NOT metabolized
